- TEST SUMMARY: Biodistribution study in LNCaP tumor-bearing mice (Th227 counted in organs)
- Assay type: in vivo, SCID mice
- REPORTED CONDITIONS: 0.25 h; 1500 kBq/kg
- Source text: SCID mice were randomly assigned to experimental groups, ten animals per group (efficacy) or n=3-5 per time point of biodistribution study. […] At the predetermined time point, n=3 animals were sacrificed, the organs removed, weight and measured in a Germanium detector to count the Th227 in the sample.
PROPERTY NAME: Th-227 in large intestine (% ID Th-227/g organ)

* Cc1cc(C(=O)NCCN(CCCN(CCNC(=O)c2cc(C)n(CC(=O)O)c(=O)c2[O-])CCNC(=O)c2cc(C)n(CC(=O)NCC3CCC(C(=O)NC(Cc4cnc5ccccc5c4)C(=O)NCCCCC(NC(=O)NC(CCC(=O)O)C(=O)O)C(=O)O)CC3)c(=O)c2[O-])CCNC(=O)c2cc(C)n(CC(=O)NCC3CCC(C(=O)NC(Cc4cnc5ccccc5c4)C(=O)NCCCCC(NC(=O)NC(CCC(=O)O)C(=O)O)C(=O)O)CC3)c(=O)c2[O-])c([O-])c(=O)n1CC(=O)O.[227Th+4] (stereo not shown) [Example 22-C dimer-227Th] | 0.87

====

- TEST SUMMARY: Biodistribution study in LNCaP tumor-bearing mice (Th227 counted in organs)
- Assay type: in vivo, SCID mice
- REPORTED CONDITIONS: 4 hr; 1500 kBq/kg
PROPERTY NAME: Th-227 in salivary glands (% ID Th-227/g organ)

* O=C([O-])CN1CCN(CC(=O)[O-])CCN(CC(=O)NCC2CCC(C(=O)NC(Cc3ccc4ccccc4c3)C(=O)NCCCCC(NC(=O)NC(CCC(=O)O)C(=O)O)C(=O)O)CC2)CCN(CC(=O)[O-])CC1.[227Th+4] [Example 1-B-D-227Th] | 0.30
* O=C([O-])CN1CCN(CC(=O)[O-])CCN(CC(=O)NCc2ccc(C(=O)N[C@@H](Cc3ccc4ccccc4n3)C(=O)NCCCC[C@H](NC(=O)N[C@@H](CCC(=O)O)C(=O)O)C(=O)O)nc2)CCN(CC(=O)[O-])CC1.[227Th+4] [Example 34-B-227Th] | 1.05
* O=C([O-])CN1CCN(CC(=O)[O-])CCN(CC(=O)NCC2CCC(C(=O)NC(Cc3ccc4ccccc4c3)C(=O)NCCCCC(NC(=O)NC(CCC(=O)O)C(=O)O)C(=O)O)CC2)CCN(CC(=O)[O-])CC1.[227Th+4] (stereo not shown) [Example 1-B-227Th] | 0.72
* Cc1cc(C(=O)NCCN(CCCN(CCNC(=O)c2cc(C)n(CC(=O)O)c(=O)c2[O-])CCNC(=O)c2cc(C)n(CC(=O)NCC3CCC(C(=O)NC(Cc4cnc5ccccc5c4)C(=O)NCCCCC(NC(=O)NC(CCC(=O)O)C(=O)O)C(=O)O)CC3)c(=O)c2[O-])CCNC(=O)c2cc(C)n(CC(=O)NCC3CCC(C(=O)NC(Cc4cnc5ccccc5c4)C(=O)NCCCCC(NC(=O)NC(CCC(=O)O)C(=O)O)C(=O)O)CC3)c(=O)c2[O-])c([O-])c(=O)n1CC(=O)O.[227Th+4] (stereo not shown) [Example 22-C dimer-227Th] | 0.36

====

This section presents compounds with their documented Internalized in LNCaP fmol/10^6 cells 2 h values.
- SUBJECT OF TEST: PSMA-expressing LNCaP cells (Homo sapiens)
- Construct: PSMA-expressing LNCaP cells; endogenous in cells; host or cells: LNCaP
- Sequence (Q04609 whole entry): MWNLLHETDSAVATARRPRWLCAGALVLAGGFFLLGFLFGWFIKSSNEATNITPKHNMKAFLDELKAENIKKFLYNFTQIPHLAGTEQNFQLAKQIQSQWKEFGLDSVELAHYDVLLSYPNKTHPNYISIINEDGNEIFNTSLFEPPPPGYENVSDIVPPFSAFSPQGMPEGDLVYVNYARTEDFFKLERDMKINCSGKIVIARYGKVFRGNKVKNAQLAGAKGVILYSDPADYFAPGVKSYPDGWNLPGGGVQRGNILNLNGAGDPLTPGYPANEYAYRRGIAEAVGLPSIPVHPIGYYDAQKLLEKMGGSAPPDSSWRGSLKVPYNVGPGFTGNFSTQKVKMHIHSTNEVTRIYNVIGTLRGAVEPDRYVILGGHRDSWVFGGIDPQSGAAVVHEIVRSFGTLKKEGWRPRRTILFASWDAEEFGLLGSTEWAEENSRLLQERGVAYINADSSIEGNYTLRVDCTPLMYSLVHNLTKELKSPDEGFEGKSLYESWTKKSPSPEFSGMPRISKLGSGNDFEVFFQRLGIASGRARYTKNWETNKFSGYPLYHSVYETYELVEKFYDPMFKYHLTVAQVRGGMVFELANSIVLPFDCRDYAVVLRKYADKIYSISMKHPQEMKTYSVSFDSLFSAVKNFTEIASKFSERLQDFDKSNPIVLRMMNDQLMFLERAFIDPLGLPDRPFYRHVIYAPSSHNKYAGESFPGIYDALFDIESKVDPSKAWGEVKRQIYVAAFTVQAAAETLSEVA
- TEST SUMMARY: Internalization assay (membrane bound and internalized Th-227)
- Assay type: cell-based
- REPORTED CONDITIONS: 10 nM radiolabeled compound, Th-227 at 375 kBq/nmol; 2 h incubation; triplicates
PROPERTY NAME: Internalized in LNCaP fmol/10^6 cells 2 h (fmol/10^6 cells)

• O=C([O-])CN1CCN(CC(=O)[O-])CCN(CC(=O)NCC2CCC(C(=O)NC(Cc3ccc4ccccc4c3)C(=O)NCCCCC(NC(=O)NC(CCC(=O)O)C(=O)O)C(=O)O)CC2)CCN(CC(=O)[O-])CC1.[227Th+4] [Example 1-B-D-227Th] = 12
• CC1=CC2=C3[O][227Th-5]45678([O]C9=C(C=C(C)N(CC(=O)O)C9=[O+]4)C(=O)NCCN(CCCN(CCNC(=O)C4=C([O]5)C(=[O+]6)N(CC(=O)O)C(C)=C4)CCNC(=O)C4=C([OH+]7)C(=[O+]8)N(CC(=O)NC[C@H]5CC[C@H](C(=O)N[C@@H](Cc6ccc7ccccc7c6)C(=O)NCCCC[C@H](NC(=O)N[C@@H](CCC(=O)O)C(=O)O)C(=O)O)CC5)C(C)=C4)CCNC2=O)[O+]=C3N1CC(=O)O [1-C monomer-227Th] = 291
• O=C([O-])CN1CCN(CC(=O)[O-])CCN(CC(=O)NCC2CCC(C(=O)NC(Cc3ccc4ccccc4c3)C(=O)NCCCCC(NC(=O)NC(CCC(=O)O)C(=O)O)C(=O)O)CC2)CCN(CC(=O)[O-])CC1.[227Th+4] (stereo not shown) [Example 1-B-227Th] = 189
• Cc1cc2c(c(=O)n1CC(=O)O)[O][227Th]13[O]c4c(cc(C)n(CC(=O)O)c4=O)C(=O)NCCN(CCCN(CCNC(=O)c4cc(C)n(CC(=O)O)c(=O)c4[O]1)CCNC(=O)c1cc(C)n(CC(=O)NCc4ccc(C(=O)N[C@@H](Cc5ccc6ccccc6n5)C(=O)NCCCC[C@H](NC(=O)N[C@@H](CCC(=O)O)C(=O)O)C(=O)O)nc4)c(=O)c1[O]3)CCNC2=O [34-C monomer-227Th] = 325

====

This section presents compounds with their documented Th-227 in bone values.
- TEST SUMMARY: Biodistribution study in LNCaP tumor-bearing mice (Th227 counted in organs)
- Assay type: in vivo, SCID mice
- REPORTED CONDITIONS: 24 h; 1500 kBq/kg
PROPERTY NAME: Th-227 in bone (% ID Th-227/g organ)

* O=C([O-])CN1CCN(CC(=O)[O-])CCN(CC(=O)NCC2CCC(C(=O)NC(Cc3ccc4ccccc4c3)C(=O)NCCCCC(NC(=O)NC(CCC(=O)O)C(=O)O)C(=O)O)CC2)CCN(CC(=O)[O-])CC1.[227Th+4] (stereo not shown) [Example 1-B-227Th] | 9.38
* Cc1cc(C(=O)NCCN(CCCN(CCNC(=O)c2cc(C)n(CC(=O)O)c(=O)c2[O-])CCNC(=O)c2cc(C)n(CC(=O)NCC3CCC(C(=O)NC(Cc4cnc5ccccc5c4)C(=O)NCCCCC(NC(=O)NC(CCC(=O)O)C(=O)O)C(=O)O)CC3)c(=O)c2[O-])CCNC(=O)c2cc(C)n(CC(=O)NCC3CCC(C(=O)NC(Cc4cnc5ccccc5c4)C(=O)NCCCCC(NC(=O)NC(CCC(=O)O)C(=O)O)C(=O)O)CC3)c(=O)c2[O-])c([O-])c(=O)n1CC(=O)O.[227Th+4] (stereo not shown) [Example 22-C dimer-227Th] | 0.46
* O=C([O-])CN1CCN(CC(=O)[O-])CCN(CC(=O)NCc2ccc(C(=O)N[C@@H](Cc3ccc4ccccc4n3)C(=O)NCCCC[C@H](NC(=O)N[C@@H](CCC(=O)O)C(=O)O)C(=O)O)nc2)CCN(CC(=O)[O-])CC1.[227Th+4] [Example 34-B-227Th] | 1.21
* O=C([O-])CN1CCN(CC(=O)[O-])CCN(CC(=O)NCC2CCC(C(=O)NC(Cc3ccc4ccccc4c3)C(=O)NCCCCC(NC(=O)NC(CCC(=O)O)C(=O)O)C(=O)O)CC2)CCN(CC(=O)[O-])CC1.[227Th+4] [Example 1-B-D-227Th] | 1.29

====

- TEST SUMMARY: Biodistribution study in LNCaP tumor-bearing mice (Th227 counted in organs)
- Format: in vivo, SCID mice
- REPORTED CONDITIONS: 4 hr; 1500 kBq/kg
PROPERTY NAME: Th-227 in Liver (% ID Th-227/g organ)

* O=C([O-])CN1CCN(CC(=O)[O-])CCN(CC(=O)NCC2CCC(C(=O)NC(Cc3ccc4ccccc4c3)C(=O)NCCCCC(NC(=O)NC(CCC(=O)O)C(=O)O)C(=O)O)CC2)CCN(CC(=O)[O-])CC1.[227Th+4] [Example 1-B-D-227Th] | 0.43

====

- TEST SUMMARY: Biodistribution study in LNCaP tumor-bearing mice (Th227 counted in organs)
- Format: in vivo, SCID mice
- REPORTED CONDITIONS: 1 hr; 1500 kBq/kg
- Description: SCID mice were randomly assigned to experimental groups, ten animals per group (efficacy) or n=3-5 per time point of biodistribution study. […] At the predetermined time point, n=3 animals were sacrificed, the organs removed, weight and measured in a Germanium detector to count the Th227 in the sample.
PROPERTY NAME: Th-227 in muscle (% ID Th-227/g organ)

* O=C([O-])CN1CCN(CC(=O)[O-])CCN(CC(=O)NCC2CCC(C(=O)NC(Cc3ccc4ccccc4c3)C(=O)NCCCCC(NC(=O)NC(CCC(=O)O)C(=O)O)C(=O)O)CC2)CCN(CC(=O)[O-])CC1.[227Th+4] (stereo not shown) [Example 1-B-227Th] | 0.76
* O=C([O-])CN1CCN(CC(=O)[O-])CCN(CC(=O)NCC2CCC(C(=O)NC(Cc3ccc4ccccc4c3)C(=O)NCCCCC(NC(=O)NC(CCC(=O)O)C(=O)O)C(=O)O)CC2)CCN(CC(=O)[O-])CC1.[227Th+4] [Example 1-B-D-227Th] | 0.24
* O=C([O-])CN1CCN(CC(=O)[O-])CCN(CC(=O)NCc2ccc(C(=O)N[C@@H](Cc3ccc4ccccc4n3)C(=O)NCCCC[C@H](NC(=O)N[C@@H](CCC(=O)O)C(=O)O)C(=O)O)nc2)CCN(CC(=O)[O-])CC1.[227Th+4] [Example 34-B-227Th] | 0.54
* Cc1cc(C(=O)NCCN(CCCN(CCNC(=O)c2cc(C)n(CC(=O)O)c(=O)c2[O-])CCNC(=O)c2cc(C)n(CC(=O)NCC3CCC(C(=O)NC(Cc4cnc5ccccc5c4)C(=O)NCCCCC(NC(=O)NC(CCC(=O)O)C(=O)O)C(=O)O)CC3)c(=O)c2[O-])CCNC(=O)c2cc(C)n(CC(=O)NCC3CCC(C(=O)NC(Cc4cnc5ccccc5c4)C(=O)NCCCCC(NC(=O)NC(CCC(=O)O)C(=O)O)C(=O)O)CC3)c(=O)c2[O-])c([O-])c(=O)n1CC(=O)O.[227Th+4] (stereo not shown) [Example 22-C dimer-227Th] | 0.28
